Tested on: halitosis ingredient (Hydrogen sulfide) derived from oral microbes
measurement protocol: Sedimentation of halitosis ingredient by absorbance analysis (FeS, 700 nm) in cultured saliva
Type: cell-based, oral bacteria in saliva
condition set: cultured saliva 0.5 ml, FeSO4, 24 hours 37 degrees C. anaerobic, absorbance 700 nm
Assign Halitosis ingredient (Hydrogen sulfide) Reducing ability (%) to each entry below.
A number alone suffices; assume %.

Q: // returns reported Halitosis ingredient (Hydrogen sulfide) Reducing ability (%) for input CC1(C)C2CCC1(C)C(O)C2 (stereo not shown)
Result: 45.0

Q: // returns reported Halitosis ingredient (Hydrogen sulfide) Reducing ability (%) for input CC(=O)O[C@@H]1C[C@@H]2CC[C@@]1(C)C2(C)C [Bonyl acetate]
Result: 36.0

Q: // returns reported Halitosis ingredient (Hydrogen sulfide) Reducing ability (%) for input CC1=CCC2CC1C2(C)C (stereo not shown)
Result: 50.0

Q: // returns reported Halitosis ingredient (Hydrogen sulfide) Reducing ability (%) for input CC12CCC(CC1)C(C)(C)O2
Result: 37.0
